Source: ChEMBL document CHEMBL1201862

Tested on: EKVX
protocol notes: NCI tumour cell line growth inhibition, 48 h
Active and inactive are the calls of the source. No stated cut-off is given here; in the data, active = GI50 up to about 1.1 µM and inactive = higher.
Recorded GI50 by entry
test readout: GI50

INSERT INTO measurements (molecule, assay_target, test_readout, observed_result) VALUES
  ('CN(C)CCn1c(=O)c2ccc(NCCCN(C)CCCNc3ccc4c(=O)n(CCN(C)C)c(=O)n5c6ccc(O)cc6c(=O)c3c45)c3c(=O)c4cc(O)ccc4n(c1=O)c23', 'EKVX', 'GI50', '0.0933 µM (active)'),
  ('COC(C[C@H]1CCCC[C@]1(O)/C(=C\CO[Si](C(C)C)(C(C)C)C(C)C)Sc1ccccc1)OC', 'EKVX', 'GI50', '37.4 µM (inactive)'),
  ('CC(Oc1ccc(Cl)cc1Cl)C(=O)NN1C(=O)CC(=O)NC1=S (stereo not drawn)', 'EKVX', 'GI50', '> 100 µM (inactive)');
